- Test system: KM-20L2
- protocol: NCI tumour cell line growth inhibition, 48 h
Activity calls are given as the source filed them. Cut-off read from the data, not from the text of the source: active = GI50 up to about 1.1 µM and inactive = higher.
Field 'call' accepts y (active), n (inactive)

Illustrative cases are given below, each with its answer.
Record request — test call for N#CC(C#N)=C1NC(=O)CC(=O)N1
n

Field: outcome | Entry: Cn1c(=O)c2c3ccccc3c(C(=O)c3ccccc3)n2c2ccccc21
n

Lab log entry: Cc1ccc(NC(=O)/C(Cl)=C(/Cl)C(=O)O)cc1 — outcome as called in the assay?
n

In this assay, the call recorded for Cc1cccc(C)c1NC(=O)CCCC(=O)C(C#N)c1ccc(Cl)cc1 (stereo not given) was what?
n

Recorded test outcome, item CSc1nc2nccnc2c(=O)[nH]1
n

***
Look up the recorded call for CCN(CC)CC(C)(C)C(=O)/C=C/c1ccc(/C=C/C(=O)C(C)(C)CN(CC)CC)cc1 in this test.
y

Recorded call for CC1=C(C(=O)Nc2ccccc2)C(c2ccc(N(C)C)cc2)C(C(=O)Nc2ccccc2)=C(C)N1 ?
y

* * *

- Tested on: UACC-257
- protocol: NCI tumour cell line growth inhibition, 48 h
The source made the active and inactive calls. No stated cut-off is given here; in the data, active = GI50 up to about 1.1 µM and inactive = higher.
Give one outcome, nothing more. List: TRUE = active, FALSE = inactive

Recorded test call requested for c1cncc(CSc2nc3ccccc3nc2-c2cccs2)c1
FALSE

Identify the outcome logged in this assay for the molecule shown: CS(=O)(=O)C(C#N)c1nc2ccccc2nc1Cl (configuration not stated)
FALSE

Hi, sorry to bother you, what did the test record for Cc1sc2nc3n(c(=O)c2c1C)N=CN(c1ccccc1)C3 ?
FALSE

Would you mind telling me which call this test gave CCCc1cn2c(/C=N/NC(=N)N)c(-c3ccc(Cl)c([N+](=O)[O-])c3)nc2s1 ?
FALSE

Please let me know the test result on file for Cc1cccc(C(C)C)c1NC(=O)CCl .
FALSE

* * *

- System: SF-539
- protocol: NCI tumour cell line growth inhibition, 48 h
Activity calls are given as the source filed them. Cut-off read from the data, not from the text of the source: active = GI50 up to about 1.1 µM and inactive = higher.
Write down the outcome that applies. Available outcomes: active, inactive

Lab log entry: Cc1ccccc1-c1nc2c(C(=O)NCCN(C)C)cccc2[nH]1 — outcome as called in the assay?
inactive

Which outcome was entered for the molecule COc1ccc(-c2oc(/C=N/c3ccccc3)c([N+](=O)[O-])c2-c2ccc(OC)c(OC)c2)cc1OC in this test?
inactive

Which result was noted for this molecule in the test: O=C1c2ccccc2N1C(=O)c1ccccc1[N+](=O)[O-]
inactive

Kindly provide the recorded test outcome for the following molecule: Oc1cccc2c1NC1=C(CCC/C1=C\c1ccccc1)C2
inactive

GET /call?item= Nc1nc(N)c(C2=CCN(Cc3ccccc3)CC2)c(=O)[nH]1 returns the recorded outcome of this test.
inactive

---
Which outcome did this test record for the molecule COc1cc2cc[n+](C)c(Cc3ccc(Oc4cc(Cc5c6cc(OC)c(OC)cc6cc[n+]5C)ccc4OC)cc3)c2cc1OC ?
inactive

What did this assay record as the result for COc1ccc(/C=C\c2cc(OC)c(OC)c(OC)c2)cc1OC ?
active

Hi, do you know how CCOC(=O)C(C)(C)Oc1ccc2c(-c3ccc(Cl)cc3)c(-c3ccc(Cl)cc3)c(=O)oc2c1 came out in this test?
inactive

State the result this test recorded for COc1c2c(cc3c1C(=O)c1c(O)cccc1C3=O)CC(O)CC2 (stereo not given) .
inactive

I would be grateful if you could indicate the recorded call for CS(=O)(=O)C(C#N)c1nc2ccccc2nc1Cl (stereo not given) .
inactive

* * *

- Test system: HCC 2998
- protocol: NCI tumour cell line growth inhibition, 48 h
Active and inactive are the calls of the source. No stated cut-off is given here; in the data, active = GI50 up to about 1.1 µM and inactive = higher.
I would appreciate it if you answered using one of these outcomes: active, inactive

See these solved cases before continuing.
Answer briefly: the call reported for Brc1cc2nn(-c3ccccc3)nc2c2nonc12 in this assay.
inactive

Assay outcome for c1ccc2c(c1)nc1n2C2CCC(C2)N1 (centres undefined) : what was it?
inactive

Which outcome did this test record for the compound COc1ccc(-c2cc(=O)c3c(O)cccc3o2)c(OC)c1OC ?
inactive

Hi team, can someone confirm the assay call for COc1ccccc1N/C(=C\C(=O)C(=O)NC12CC3CC(CC(C3)C1)C2)c1ccccc1 ?
inactive

Lab log entry: CC(NCc1c(O)ccc2c(-c3ccccc3)cc(=O)oc12)C(=O)O (centres undefined) — outcome as called in the assay?
inactive

Name the outcome recorded for O=C(CN1CCN(c2ccccc2)CC1)N1CCc2c([nH]c3ccccc23)C1c1cccnc1 (centres undefined) in the assay.
inactive

Now examine the next entry.
Outcome logged for Nc1nc2[nH]cc(CCc3ccc(C(=O)N[C@@H](CCC(=O)O)C(=O)O)cc3)c2c(=O)[nH]1 in this assay:
active

* * *

- Tested on: K562
- protocol: NCI tumour cell line growth inhibition, 48 h
Activity calls are given as the source filed them. Rule as the data show it: active = GI50 up to about 1.1 µM and inactive = higher.
Listed here are compounds together with their documented GI50.

For the record O=C1c2ccccc2N1C(=O)c1ccccc1[N+](=O)[O-] , what value of GI50 is listed for K562?
> 100 µM (inactive)

Form field - read-out: GI50; system: K562; submitted item: COC(=O)c1cc(=O)nc2sc3cccc(C)c3n12
30.3 µM (inactive)

What is its GI50 for K562? Entry: CC(=O)NNC1=NN(C(C)=O)C2(S1)C(=O)Nc1ccccc12 (stereo not drawn)
> 100 µM (inactive)

---
Field: GI50 (K562). Entry: Cc1cc(O)nc(NN2C(Cl)C(=O)C2c2ccc(O)cc2)n1 (stereo not drawn)
2.37 µM (inactive)

Hello, I am looking for reported GI50 with K562 for COc1cc2c(cc1OC)C(=O)N(c1ccc(OCCN3CCCC3)cc1)C2=O . Could you help?
> 100 µM (inactive)

Given the entry COc1c2c(cc3c1C(=O)c1c(O)cccc1C3=O)CC(O)CC2 (stereo not drawn) , what GI50 was observed with K562?
> 100 µM (inactive)

What value of GI50 on K562 does Cc1ccc(S(=O)(=O)[C@@H](Cl)[C@H]2N=C(Cl)NN=C2c2ccccc2)cc1 have?
29.5 µM (inactive)

Return GI50 measured with K562 given this compound: COc1cc2cc[n+](C)c(Cc3ccc(Oc4cc(Cc5c6cc(OC)c(OC)cc6cc[n+]5C)ccc4OC)cc3)c2cc1OC
> 100 µM (inactive)

Recorded GI50 for C=C1C(=O)O[C@@H]2[C@H]1CC[C@H](C)[C@]1(O)CCC(=O)[C@@]21C [CORONOPILIN] with K562, please?
> 10 µM (inactive)

// map O=c1oc2ccc3ccccc3c2cc1-c1cn2ccccc2n1 to recorded GI50 (system: K562)
> 100 µM (inactive)

* * *

- Tested on: UACC-62
- protocol: NCI tumour cell line growth inhibition, 48 h
Active and inactive are the calls of the source. Cut-off read from the data, not from the text of the source: active = GI50 up to about 1.1 µM and inactive = higher.
Mark one answer only. Choices: active, inactive

Consider the following illustrative entries.
What did this assay record as the result for CC(C)NC(=O)OCc1c(COC(=O)NC(C)C)n(C)c2c1ccc1cc(Cl)c(Cl)cc12 ?
inactive

Status in this test for CCN(/N=C1\CC2C=CCN(C2)C(=O)Cc2c1[nH]c1ccccc21)S(=O)(=O)c1ccc(C)cc1 (configuration not stated) ?
inactive

Outcome logged for NC(CCSCCF)C(=O)O (configuration not stated) in this assay:
inactive

Continuing:
Would you mind telling me which call this test gave NNC(=O)N/N=C1\CNC(=O)C(=O)C1c1nc2ccccc2s1 (configuration not stated) ?
inactive

Recorded test call requested for Cc1ccc(NC(=O)/C(Cl)=C(/Cl)C(=O)O)cc1
inactive

* * *

- Tested on: DU-145
- protocol: NCI tumour cell line growth inhibition, 48 h
Active and inactive are the calls of the source. Rule as the data show it: active = GI50 up to about 1.1 µM and inactive = higher. Residues, ends and D or L forms follow the SMILES beside them. *: point of attachment. Bn = c1ccc(C*)cc1
parameter measured: GI50

Any idea what its GI50 is? The compound is COc1cc(C2SCC(=O)N2c2ccc(-n3c(-c4ccccc4)nc4ccccc4c3=O)cc2)ccc1O (centres undefined)
> 100 µM (inactive)

Looking for the measured GI50 of Clc1ccc(Nc2nnc(CNc3ccc(-c4nnc(Nc5ccc(Cl)cc5)s4)cc3)s2)cc1 , can you help?
22.5 µM (inactive)

Which value of GI50 has been reported for Cc1c(N2CCCC2)cc2c(c1NC(=O)c1ccccc1Cl)C(C)(C)CC2(C)C in the records?
15.9 µM (inactive)

Could you share which GI50 value was measured for CC(C)C[C@H](NC(=O)[C@@H](Cc1cccc2ccccc12)NC(=O)N1CCOCC1)B(O)O ?
10.9 µM (inactive)

GI50 lookup needed for COC(=O)c1ccc(/C=C2\Oc3ccccc3C2=O)cc1 , thanks.
> 100 µM (inactive)

Entry O=C(OCc1ccccc1CN1CCOCC1)c1cccc(Br)c1 has what GI50?
71 µM (inactive)

Name the reported GI50 value associated with the compound COc1ccc(-c2nnc(-c3ccncc3)o2)cc1
> 100 µM (inactive)

Returns the measured GI50 for the input compound. Input: CCOC(=O)/C=C(/C(=O)OCC)n1cc(C)c(=O)[nH]c1=O
16.1 µM (inactive)

Continuing:
// GI50 lookup, key: O=C(/C=C(\C(=O)c1cccs1)c1cccs1)c1ccc(C(=O)/C=C(\C(=O)c2cccs2)c2cccs2)cc1
> 100 µM (inactive)

Tell me the measured GI50 of COC(=O)C(CC(C)C)NC(=O)C(N)Cc1ccc(OCc2ccccc2)cc1 (centres undefined) (H-Tyr(Bn)-Leu-OMe; configuration not given here) , please.
> 10 µM (inactive)

What value of GI50 has been recorded for this entry: N#Cc1c(SCc2ccccc2)nc(-c2ccccc2)[nH]c1=S
42 µM (inactive)

Fill in the blank: the reported GI50 of CC1=C(C(=O)Nc2ccccc2)C(c2ccc(N(C)C)cc2)C(C(=O)Nc2ccccc2)=C(C)N1 is ____.
3.17 µM (inactive)
